Values compiled from patent US4014909A.

- Tested on: granuloma
- test.method.notes: Anti-proliferative (anti-granulomatous) activity, cotton pellet granuloma
- Type: in vivo, rat (Wistar, male)
- experimental.conditions: rat, cotton pellet impregnated with product, 6 days
Overview of reported ED50 anti-proliferative activity across a group of compounds:

INSERT INTO measurements (compound, measure_name, measurement) VALUES
  ('CCCCCCC(=O)SCC(=O)[C@@]1(O)CC[C@H]2[C@@H]3CCC4=CC(=O)C=C[C@]4(C)[C@H]3[C@@H](O)C[C@@]21C [JO 1009]', 'ED50 anti-proliferative activity', '0.5 mg/pellet'),
  ('C[C@@H]1C[C@H]2[C@@H]3CCC4=CC(=O)C=C[C@]4(C)[C@@]3(F)[C@@H](O)C[C@]2(C)[C@@]1(O)C(=O)CO [Dexamethasone (base), Dexamethasone, reference compound]', 'ED50 anti-proliferative activity', '1 mg/pellet');

Recorded ED50 anti-proliferative activity for C[C@]12C=CC(=O)C=C1CC[C@@H]1[C@@H]2[C@@H](O)C[C@@]2(C)[C@H]1CC[C@]2(O)C(=O)CO [Prednisolone (base), Prednisolone, reference compound] , please?
4 mg/pellet
